Every entry's value here was drawn from patent US20240360114A1.

system: HT-1080 cells; assay: HT-1080 cell viability assay (ferroptosis induced by RSL3, Cell Titer-Glo); type: cell-based; conditions: Homo sapiens, HT-1080, 20 h, ferroptosis inducer RSL3, 20 hours, ferroptosis inhibitory activity, Table 2
Quantity Kind: EC50

{"Compound": "CC1CN(c2ccc(NC3CCC(C)(N)CC3)cc2F)CC(C)O1 (stereo not drawn) [Compound 458]", "Observed Measurement": "100 to 1000 nM"}
{"Compound": "CCC(C)(C)c1ccc(NC2CCC(N)C2)cc1 (stereo not drawn) [Compound 272]", "Observed Measurement": "0.1 to 100 nM"}
{"Compound": "CC1(C)CCC(c2ccc(NCCN3CCCC3=O)cc2)CC1 [Compound 104]", "Observed Measurement": "100 to 1000 nM"}
{"Compound": "NC1CCC(Nc2ccc3cc(N4CCC(C(F)(F)F)CC4)cnc3c2)CC1 (stereo not drawn) [Compound 572]", "Observed Measurement": "0.1 to 100 nM"}
{"Compound": "NCC1CCC(Nc2ccc(N3CCC(C(F)(F)F)CC3)nc2)CC1 (stereo not drawn) [Compound 21]", "Observed Measurement": "0.1 to 100 nM"}
{"Compound": "Cc1nc(N2C[C@@H](C)N(CC(F)(F)F)[C@@H](C)C2)ccc1NC[C@H]1CC[C@H](N)CC1 [Compound 543]", "Observed Measurement": "0.1 to 100 nM"}
{"Compound": "CC1(C)CCN(c2ncc(NC3CCC(N)CC3)cn2)CC1 (stereo not drawn) [Compound 45]", "Observed Measurement": "0.1 to 100 nM"}
{"Compound": "Cc1cc(N2CCC(C)(C)CC2)ccc1NC[C@H]1CC[C@H](N)CC1 [Compound 382]", "Observed Measurement": "0.1 to 100 nM"}
{"Compound": "CC(C)(C)c1ccc(NC2CCC(NCCCCO)CC2)cc1 (stereo not drawn) [Compound 321]", "Observed Measurement": "100 to 1000 nM"}
{"Compound": "CN1CCC(Nc2ccc(N3CCC(C(F)(F)F)CC3)cc2)CC1=O (stereo not drawn) [Compound 27]", "Observed Measurement": "100 to 1000 nM"}
{"Compound": "Cc1cc(N2CCC(C(F)(F)F)CC2)nc(F)c1NC1CCC(CN)CC1 (stereo not drawn) [Compound 22]", "Observed Measurement": "100 to 1000 nM"}
{"Compound": "CC(C)(C)c1ccc(NC(CCO)CCO)cc1 [Compound 234]", "Observed Measurement": "1000 to 10000 nM"}

----------
tested on: HT-1080 cells; assay: HT-1080 cell viability assay (ferroptosis induced by RSL3, Cell Titer-Glo); assay type: cell-based; details: Homo sapiens, HT-1080, 20 h, ferroptosis inducer RSL3, 20 hours, ferroptosis inhibitory activity, Table 2

{"Compound": "Cc1nc(N2CC(C)OC(C)C2)ccc1NCC1CC2(CC(N)C2)C1 (stereo not drawn)", "EC50": "0.0001 to 0.1 µM"}
{"Compound": "Cc1nc(N2CCOCC2)ccc1NC1C2CC3CC1CC(CN)(C3)C2 (stereo not drawn) [Compound 538A]", "EC50": "0.0001 to 0.1 µM"}
{"Compound": "N[C@H]1CC[C@@H](CNc2ccc3c(c2)CCC3)CC1", "EC50": "0.0001 to 0.1 µM"}
{"Compound": "CN1CCC(NC(=O)C2CCC(Nc3ccc(C4CCC(C)(C)CC4)cc3)CC2)CC1 (stereo not drawn)", "EC50": "0.0001 to 0.1 µM"}
{"Compound": "CC(C)(C)Nc1ccc(N2CCC(C(F)(F)F)CC2)cc1", "EC50": "0.1 to 1 µM"}
{"Compound": "CCN1CC(C(=O)NCC2CCC(Nc3ccc(N4CCC(C(F)(F)F)CC4)cc3)CC2)CC1=O (stereo not drawn)", "EC50": "0.0001 to 0.1 µM"}
{"Compound": "CCc1ccc(NC2CCC(N)CC2)cc1 (stereo not drawn)", "EC50": "0.1 to 1 µM"}
{"Compound": "CC[C@@H]1CN(c2ccc(NC3CC4(CC(N)C4)C3)c(C)n2)C[C@H](CC)O1 (stereo partly drawn)", "EC50": "0.0001 to 0.1 µM"}
{"Compound": "NC1CCC(Nc2ccc(F)cc2)CC1 (stereo not drawn)", "EC50": "1 to 10 µM"}
{"Compound": "CC(C)C1CCN(c2ncc(NC3C4CC5CC3CC(CN)(C5)C4)cn2)CC1 (stereo not drawn)", "EC50": "0.0001 to 0.1 µM"}
{"Compound": "C[C@H](O)[C@@H](N)C(=O)NC1CCC(Nc2ccc(C3CCC(C)(C)CC3)cc2)CC1 (stereo partly drawn)", "EC50": "0.0001 to 0.1 µM"}
{"Compound": "O=C(NCC1CCC(Nc2ccc(N3CCC(C(F)(F)F)CC3)cc2)CC1)C1CCNC1 (stereo not drawn)", "EC50": "0.0001 to 0.1 µM"}
{"Compound": "CC1CCC(Nc2ccc(C3CCCCC3)cc2)CC1 (stereo not drawn)", "EC50": "0.1 to 1 µM"}
{"Compound": "Cc1nc(NCC(F)(F)F)ccc1NC1CC2(CC(N)C2)C1 (stereo not drawn)", "EC50": "0.0001 to 0.1 µM"}
{"Compound": "Cc1nc(N2CCC(C(F)(F)F)CC2)ccc1NC1CCC(CN)CC1 (stereo not drawn)", "EC50": "0.0001 to 0.1 µM"}
{"Compound": "CC[C@@H]1CN(c2ccc(NC[C@H]3CC[C@H](N)CC3)c(C)n2)C[C@H](CC)O1", "EC50": "0.0001 to 0.1 µM"}
{"Compound": "CC(C)(C)Nc1ccc(C2CCNCC2)cc1", "EC50": "1 to 10 µM"}
{"Compound": "CC1(C)CCC(c2ccc(NC3CCC(CCNC(N)=O)CC3)cc2)CC1 (stereo not drawn)", "EC50": "0.0001 to 0.1 µM"}
{"Compound": "CC1(C)CCN(c2ccc(NC3CCC(N)CC3)cc2C(F)(F)F)CC1 (stereo not drawn)", "EC50": "0.0001 to 0.1 µM"}
{"Compound": "C[C@@H]1CN(c2ccc3cc(NC4CC5(CC(N)C5)C4)ccc3n2)C[C@H](C)O1 (stereo partly drawn)", "EC50": "0.0001 to 0.1 µM"}
{"Compound": "CC1CN(c2ccc(NC[C@H]3CC[C@H](N)CC3)c(C(F)(F)F)c2)CC(C)O1 (stereo partly drawn)", "EC50": "0.1 to 1 µM"}
{"Compound": "CC1(C)CCC(c2ccc(NC3CCC(CO)CC3)cc2)CC1 (stereo not drawn)", "EC50": "0.0001 to 0.1 µM"}
{"Compound": "CC(C)(C)c1ccc(NCCc2cnc[nH]2)cc1", "EC50": "1 to 10 µM"}
{"Compound": "CC(C)(C)c1ccc(NC2CCC(NC(=O)[C@H]3CNC(=O)N3)CC2)cc1 (single isomer, unassigned) [Compound 115A]", "EC50": "0.1 to 1 µM"}
